The measured values listed here are drawn from patent US20100267734A1.

# test system: Human GHSR (Homo sapiens, UniProt Q92847)
# Sequence (Q92847 whole entry): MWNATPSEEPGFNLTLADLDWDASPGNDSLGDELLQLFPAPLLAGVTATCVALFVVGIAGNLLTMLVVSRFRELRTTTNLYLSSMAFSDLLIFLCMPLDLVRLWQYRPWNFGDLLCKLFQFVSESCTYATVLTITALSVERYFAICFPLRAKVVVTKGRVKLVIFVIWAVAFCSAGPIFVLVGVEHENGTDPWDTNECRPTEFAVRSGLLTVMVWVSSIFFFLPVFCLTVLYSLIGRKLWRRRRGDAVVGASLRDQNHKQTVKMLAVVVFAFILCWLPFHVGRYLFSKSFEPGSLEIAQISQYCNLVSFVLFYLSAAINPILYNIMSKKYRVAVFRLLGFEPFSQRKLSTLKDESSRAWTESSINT
# experiment description: GHS-R GTPγS functional antagonist assay
# assay conditions: membranes of HEK293T cells transiently expressing GHS-R; human Ghrelin at EC80; [35S]GTPγS SPA
pKi: −log10 of the molar value. Counter-ions that a name gives are not always drawn.
readout kind: pKi

Input line: Recall and state the measured pKi for CN1CCN([C@@H](C(=O)NCc2cc(Cl)cc(Cl)c2)c2cccc3ccccc23)CC1 [Compound 3, hydrochloride] .
Output line: > 8.00

API: the following record is the query input.
Input line: Recall and state the measured pKi for CN1CCN(C(C(=O)NCc2cc(Cl)cc(Cl)c2)c2cccc3ccccc23)CC1 (racemic) .
Output line: > 8.00
